Values were extracted from patent US20230303680A1.

# test_system: T1, human interleukin-2 (recombinant human IL-2, teceleukin) (human, UniProt P60568 21-153)
# T1 construct: also called hIL-2; rhIL-2
# T1 sequence (P60568 21-153 limits assumed): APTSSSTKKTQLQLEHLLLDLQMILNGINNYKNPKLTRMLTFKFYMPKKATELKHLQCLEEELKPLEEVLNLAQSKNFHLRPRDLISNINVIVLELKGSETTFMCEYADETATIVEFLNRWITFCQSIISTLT
# test_method_notes: SPR
measurement_name: Kd (nM)
Please reply with the bare figure in nM and do not write the unit itself.

Data request: Using the record for UFKA-22-13 (antibody, human IgG1, V domains shown) VH: EVQLVESGGGLVKPGGSLRLSCAASGFSFSNYAMSWVRQAPGKGLEWVSLISGGGSYSYYPDSLKGRFTISRDSAKNSLYLQMSSLRAEDTAMYYCARHMGYNDYLAWFAYWGQGTLVTVSS VL: DIVMTQSPDSLAVSLGERATINCKSSQSLLNSANQKNYLAWYQQKPGQPPKLLIYFASTRESGVPDRFIGSGSGTDFTLTISSLQAEDVAVYYCQQYYSAPPWTFGGGTKVEIK , report its Kd.
Data returned: 4.56

Data request: Bench note: what Kd did UFKA-22-07 (antibody, human IgG1, V domains shown) VH: EVQLVESGGGLVKPGGSLRLSCAASGFSFSNYAMSWVRQAPGKGLEWVSLISGGGSYSYYPDSLKGRFTISRDNAKNSLYLQMNSLRAEDTAVYYCARHMGYNDYLAWFAYWGQGTLVTVSS VL: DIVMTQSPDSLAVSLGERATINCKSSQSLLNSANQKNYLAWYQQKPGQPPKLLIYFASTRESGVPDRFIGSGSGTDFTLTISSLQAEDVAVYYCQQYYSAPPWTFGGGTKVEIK show?
Data returned: 5.17

Data request: # Kd lookup, item UFKA-22-10 (antibody, human IgG1, V domains shown) VH: EVQLVESGGGLVKPGGSLRLSCAASGFSFSNYAMSWVRQAPGKGLEWVSLISGGGSYSYYPDSLKGRFTISRDSAKNSLYLQMSSLRAEDTAVYYCARHMGYNDYLAWFAYWGQGTLVTVSS VL: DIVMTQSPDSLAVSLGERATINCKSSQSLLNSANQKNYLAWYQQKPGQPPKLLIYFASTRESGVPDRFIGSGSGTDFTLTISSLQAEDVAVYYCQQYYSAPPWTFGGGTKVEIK
Data returned: 5.16
